Documented Caco-2 Pab across a set of compounds
# Tested on: Caco-2 cell monolayer
# TEST DETAILS: Bidirectional permeability measurement in Caco-2 cells
# Type: in vitro ADME
# CONDITIONS USED: Caco-2, a to b

SUBSTANCE SMILES: CN1CCC(c2ccc3c(c2)n(C2CCCC2)c2nc(=O)c4c(Br)cccc4n32)CC1
TARGET ENTITY: Caco-2 cell monolayer
RESULT OPERATOR: =
Caco-2 Pab (cm/s): 2.83e-05

SUBSTANCE SMILES: Cc1ncsc1-c1ccc([C@H](COCCN2CCC(c3ccc4c(c3)n(C3CCCC3)c3nc(=O)c5c(Br)cccc5n43)CC2)NC(=O)[C@@H]2C[C@@H](O)CN2C(=O)[C@@H](NC(=O)C2(N(C)C)CC2)C(C)(C)C)cc1
TARGET ENTITY: Caco-2 cell monolayer
RESULT OPERATOR: <
Caco-2 Pab (cm/s): 2.7e-06

SUBSTANCE SMILES: Cc1ncsc1-c1ccc(CNC(=O)[C@@H]2C[C@@H](O)CN2C(=O)[C@@H](NC(=O)C2(F)CC2)C(C)(C)C)c(OCCCCN2CCC(c3ccc4c(c3)n(C3CCCC3)c3nc(=O)c5c(Br)cccc5n43)CC2)c1
TARGET ENTITY: Caco-2 cell monolayer
RESULT OPERATOR: =
Caco-2 Pab (cm/s): 4.01e-07

SUBSTANCE SMILES: Cc1ncsc1-c1ccc(CNC(=O)[C@@H]2C[C@@H](O)CN2C(=O)[C@@H](NC(=O)C2(F)CC2)C(C)(C)C)c(OCCOCCOCCN2CCC(c3ccc4c(c3)n(C3CCCC3)c3nc(=O)c5c(Br)cccc5n43)CC2)c1
TARGET ENTITY: Caco-2 cell monolayer
RESULT OPERATOR: <
Caco-2 Pab (cm/s): 2.83e-07

SUBSTANCE SMILES: CN1CCN(c2nc(=O)c3c(Cl)cccc3o2)CC1
TARGET ENTITY: Caco-2 cell monolayer
RESULT OPERATOR: =
Caco-2 Pab (cm/s): 9.26e-05

SUBSTANCE SMILES: Cc1ncsc1-c1ccc([C@H](CCCCN2CCC(c3ccc4c(c3)n(C3CCCC3)c3nc(=O)c5c(Br)cccc5n43)CC2)NC(=O)[C@@H]2C[C@@H](O)CN2C(=O)[C@@H](NC(=O)C2(F)CC2)C(C)(C)C)cc1
TARGET ENTITY: Caco-2 cell monolayer
RESULT OPERATOR: <
Caco-2 Pab (cm/s): 4.3e-06

SUBSTANCE SMILES: O=c1nc2n(C3CCCC3)c3ccccc3n2c2cccc(Br)c12
TARGET ENTITY: Caco-2 cell monolayer
RESULT OPERATOR: =
Caco-2 Pab (cm/s): 3.09e-05

SUBSTANCE SMILES: Cc1ncsc1-c1ccc(CNC(=O)[C@@H]2C[C@@H](O)CN2C(=O)[C@@H](NC(=O)C2(F)CC2)C(C)(C)C)c(OCCOCCOCCOCCN2CCC(c3ccc4c(c3)n(C3CCCC3)c3nc(=O)c5c(Br)cccc5n43)CC2)c1
TARGET ENTITY: Caco-2 cell monolayer
RESULT OPERATOR: <
Caco-2 Pab (cm/s): 2.78e-07

SUBSTANCE SMILES: Nc1cccc2c1c(=O)nc1n(C3CCCC3)c3ccccc3n21
TARGET ENTITY: Caco-2 cell monolayer
RESULT OPERATOR: =
Caco-2 Pab (cm/s): 3.7e-05

SUBSTANCE SMILES: Cc1ncsc1-c1ccc(CNC(=O)[C@@H]2C[C@@H](O)CN2C(=O)[C@@H](NC(=O)C2(F)CC2)C(C)(C)C)c(OCCN2CCC(c3ccc4c(c3)n(C3CCCC3)c3nc(=O)c5c(Br)cccc5n43)CC2)c1
TARGET ENTITY: Caco-2 cell monolayer
RESULT OPERATOR: <
Caco-2 Pab (cm/s): 4.04e-07
